- experimental_system: PKC θ (Homo sapiens)
- test_protocol: PKC θ enzyme inhibition test (TR-FRET)
- Assay type: biochemical
- test_parameters: 1 μM test compound, well without enzyme = 100% inhibition, read-out: PKC θ inhibitory activity (%, 1 μM)
observable: inhibition at 1 µM (%)

compound: CCOc1ccnc2[nH]c(=O)n(-c3ccc4nccc(OC)c4c3)c12 [Example 41]
inhibition at 1 µM [%]: 97

compound: CCOc1ccnc2[nH]c(=O)n(-c3ccc4ncn(C)c4n3)c12 [Example 13]
inhibition at 1 µM [%]: 90

compound: CCOc1ccnc2[nH]c(=O)n(-c3ccc4nncc(OC)c4c3)c12 [Example 60]
inhibition at 1 µM [%]: 101

compound: CCOc1ccnc2[nH]c(=O)n(-c3ccc4nccc(N5CCNCC5)c4c3)c12 [Example 92]
inhibition at 1 µM [%]: 102

compound: CCOc1ccnc2[nH]c(=O)n(-c3ccc4ncc(-c5cn[nH]c5)c(OC)c4c3)c12 [Example 185]
inhibition at 1 µM [%]: 101

compound: CCOc1ccnc2[nH]c(=O)n(-c3ccc4ncc(CC)n4c3)c12 [Example 11]
inhibition at 1 µM [%]: 96

compound: CCOc1ccnc2[nH]c(=O)n(-c3ccc4ncc5c(c4c3)OCCO5)c12 [Example 75]
inhibition at 1 µM [%]: 101

compound: CCOc1ccnc2[nH]c(=O)n(-c3ccc4nccc(OC)c4n3)c12 [Example 55]
inhibition at 1 µM [%]: 124

compound: CCOc1ccnc2[nH]c(=O)n(-c3cc4c5c(cnc4cc3F)OCCO5)c12 [Example 94]
inhibition at 1 µM [%]: 101

* * *

- experimental_system: PKC θ (Homo sapiens, UniProt Q04759)
- Sequence (Q04759 whole entry): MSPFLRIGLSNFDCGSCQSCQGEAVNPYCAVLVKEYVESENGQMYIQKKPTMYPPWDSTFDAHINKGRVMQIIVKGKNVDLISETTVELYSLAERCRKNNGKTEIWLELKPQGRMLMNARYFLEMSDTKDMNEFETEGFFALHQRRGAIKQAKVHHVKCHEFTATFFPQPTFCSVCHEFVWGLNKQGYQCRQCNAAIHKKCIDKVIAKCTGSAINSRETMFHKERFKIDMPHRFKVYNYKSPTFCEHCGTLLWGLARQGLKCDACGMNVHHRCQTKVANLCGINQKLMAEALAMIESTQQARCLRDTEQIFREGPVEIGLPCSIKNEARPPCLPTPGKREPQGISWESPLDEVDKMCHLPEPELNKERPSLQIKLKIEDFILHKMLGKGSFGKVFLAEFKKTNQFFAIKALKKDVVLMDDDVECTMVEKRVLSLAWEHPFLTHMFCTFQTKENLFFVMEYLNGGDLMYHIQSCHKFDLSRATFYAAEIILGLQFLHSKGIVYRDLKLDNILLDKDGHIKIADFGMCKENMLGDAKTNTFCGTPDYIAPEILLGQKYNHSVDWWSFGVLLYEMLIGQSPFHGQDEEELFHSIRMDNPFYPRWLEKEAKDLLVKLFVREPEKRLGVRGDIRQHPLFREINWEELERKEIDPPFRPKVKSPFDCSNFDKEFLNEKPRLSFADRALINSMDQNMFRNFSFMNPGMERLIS
- test_protocol: PKC θ enzyme inhibition test (TR-FRET)
- Assay type: biochemical
- test_parameters: 1 μM test compound, well without enzyme = 100% inhibition, read-out: PKC θ inhibitory activity (%, 1 μM)
observable: inhibition at 1 µM (%)

molecule: CCOc1ccnc2[nH]c(=O)n(-c3ccc4occ(C)c4c3)c12 [Example 15]
experimental_system: PKC θ (Homo sapiens, UniProt Q04759)
observed_result: 99

molecule: CCOc1ccnc2[nH]c(=O)n(-c3ccc4ncn(C)c4c3)c12 [Example 7]
experimental_system: PKC θ (Homo sapiens, UniProt Q04759)
observed_result: 100

molecule: COc1cnnc2ccc(-n3c(=O)[nH]c4nccc(OC5CCC5)c43)cc12 [Example 204]
experimental_system: PKC θ (Homo sapiens, UniProt Q04759)
observed_result: 101

molecule: CCOc1ccnc2[nH]c(=O)n(-c3ccc4ncnc(OC)c4c3)c12 [Example 39]
experimental_system: PKC θ (Homo sapiens, UniProt Q04759)
observed_result: 102

molecule: CCOc1ccnc2[nH]c(=O)n(-c3ccc4[nH]nc(C)c4c3)c12 [Example 18]
experimental_system: PKC θ (Homo sapiens, UniProt Q04759)
observed_result: 97

* * *

- experimental_system: PKC θ (Homo sapiens, UniProt Q04759)
- test_protocol: PKC θ enzyme inhibition test (TR-FRET)
- Assay type: biochemical
- test_parameters: 1 μM test compound, well without enzyme = 100% inhibition, read-out: PKC θ inhibitory activity (%, 1 μM)
observable: inhibition at 1 µM (%)

compound: CCOc1cnc2ccc(-n3c(=O)[nH]c4nccc(OCC)c43)cc2n1 [Example 93]
unit_info: %
inhibition at 1 µM: 94
--
compound: CCOc1ccnc2[nH]c(=O)n(-c3ccc4nccc(C(N)=O)c4c3)c12 [Example 27]
unit_info: %
inhibition at 1 µM: 90
--
compound: CCOc1ccnc2[nH]c(=O)n(-c3ccn4ncc(CC)c4c3)c12 [Example 17]
unit_info: %
inhibition at 1 µM: 100
--
compound: CCOc1ccnc2[nH]c(=O)n(-c3ccc4ncc(-c5cnn(C)c5)c(OC)c4c3)c12 [Example 177]
unit_info: %
inhibition at 1 µM: 100
--
compound: CCOc1ccnc2[nH]c(=O)n(-c3ccc4ncc(F)c(OC)c4c3)c12 [Example 230]
unit_info: %
inhibition at 1 µM: 102
